# ASSAY_PROTOCOL: metabolic products
# Type: in vivo
# EXPERIMENTAL_CONTEXT: in vivo; read-out: fraction of compound decomposed into 5-aminophthalic acid, oxygen, and nitrogen
PARAMETER_MEASURED: metabolised

MOLECULE	OBSERVED_MEASUREMENT
Nc1cccc2c(=O)[nH][nH]c(=O)c12	> 90%

###

# EXPERIMENTAL_CONTEXT: in vivo

MOLECULE	CL renal
Nc1cccc2c(=O)[nH][nH]c(=O)c12	50 to 80 mL/min

Data origin, for the record: patent US5543410A
